Test system: UACC-62
Test: Cytotoxicity against human UACC62 cells after 48 hrs by sulforhodamine B assay
Type: functional
Conditions: UACC-62, 48 h
A collection of compounds and their measured TGI
Provide only the numeric value, understood in µM.

# annotated cases, reported TGI shown
{"compound": "O=C1C=CCC(/C=C/c2ccccc2)O1 (racemic)", "TGI [µM]": 23.2}
{"compound": "COc1cccc2c1C(=O)c1c(O)c3c(c(O)c1C2=O)C[C@@](O)(C(=O)CO)C[C@@H]3O[C@H]1C[C@H](N)[C@H](O)[C@H](C)O1", "TGI [µM]": 0.32}
{"compound": "O=C1C=CC[C@@H](/C=C/c2ccccc2)O1", "TGI [µM]": 76.4}

// next item, TGI requested
Requested read-out: TGI. Entry: `O=C1C=CC[C@H](/C=C/c2ccccc2)O1`
21.6
